Test system: Shigella boydii
Test: Inhibition of Shigella boydii T6PP assessed as Km for substrate using T6P as substrate by Lineweaver-Burk plot analysis
MEASURED_PROPERTY: Km (µM)

compound_structure_string=CCCCCCc1ccc(O[C@@H]2O[C@H](COS(=O)(=O)O)[C@@H](O)[C@H](O)[C@H]2O)cc1 system="Shigella boydii" measured_property=Km measured_value=231
compound_structure_string=CCCCCCCCc1ccc(O[C@@H]2O[C@H](COS(=O)(=O)O)[C@@H](O)[C@H](O)[C@H]2O)cc1 system="Shigella boydii" measured_property=Km measured_value=222
compound_structure_string=CCCCCCCCc1ccc(O[C@H]2O[C@H](COS(=O)(=O)O)[C@@H](O)[C@H](O)[C@H]2O)cc1 system="Shigella boydii" measured_property=Km measured_value=246
compound_structure_string=CCCCCCc1ccc(O[C@H]2O[C@H](COS(=O)(=O)O)[C@@H](O)[C@H](O)[C@H]2O)cc1 system="Shigella boydii" measured_property=Km measured_value=239
